Task for the reader: assign each of the following molecules its reported Wavelength (nm) peak.
# PROTOCOL NOTES: Bioluminescence emission spectra
# Format: physicochemical
# CONDITION PARAMETERS: emission spectrum with native coelenterazine
Numbers only, in nm.

Would you please look over these solved cases?
# MOLECULE, UNIT DESCRIPTOR, Wavelength (nm) peak
data = [
    ("F33R/I34M/C124A: RLuc mutant F33R/I34M/C124A (protein) MASKVYDPEQRKRMITGPQWWARCKQMNVLDSRMNYYDSEKHAENAVIFLHGNAASSYLWRHVVPHIEPVARCIIPDLIGMGKSGKSGNGSYRLLDHYKYLTAWFELLNLPKKIIFVGHDWGAALAFHYSYEHQDKIKAIVHAESVVDVIESWDEWPDIEEDIALIKSEEGEKMVLENNFFVETMLPSKIMRKLEPEEFAAYLEPFKEKGEVRRPTLSWPREIPLVKGGKPDVVQIVRNYNAYLRASDDLPKMFIESDPGFFSNAIVEGAKKFPNTEFVKVKGLHFSQEDAPDEMGKYIKSFVERVLKNEQ", "nm", 481),
    ("C124A/S287L: RLuc mutant C124A/S287L (protein) MASKVYDPEQRKRMITGPQWWARCKQMNVLDSFINYYDSEKHAENAVIFLHGNAASSYLWRHVVPHIEPVARCIIPDLIGMGKSGKSGNGSYRLLDHYKYLTAWFELLNLPKKIIFVGHDWGAALAFHYSYEHQDKIKAIVHAESVVDVIESWDEWPDIEEDIALIKSEEGEKMVLENNFFVETMLPSKIMRKLEPEEFAAYLEPFKEKGEVRRPTLSWPREIPLVKGGKPDVVQIVRNYNAYLRASDDLPKMFIESDPGFFSNAIVEGAKKFPNTEFVKVKGLHFLQEDAPDEMGKYIKSFVERVLKNEQ", "nm", 478),
]

Turning now to a further record.
# get_value(readout='Wavelength (nm) peak', item= C124A/M253L: RLuc mutant C124A/M253L (protein) MASKVYDPEQRKRMITGPQWWARCKQMNVLDSFINYYDSEKHAENAVIFLHGNAASSYLWRHVVPHIEPVARCIIPDLIGMGKSGKSGNGSYRLLDHYKYLTAWFELLNLPKKIIFVGHDWGAALAFHYSYEHQDKIKAIVHAESVVDVIESWDEWPDIEEDIALIKSEEGEKMVLENNFFVETMLPSKIMRKLEPEEFAAYLEPFKEKGEVRRPTLSWPREIPLVKGGKPDVVQIVRNYNAYLRASDDLPKLFIESDPGFFSNAIVEGAKKFPNTEFVKVKGLHFSQEDAPDEMGKYIKSFVERVLKNEQ )
471
